target: Tyrosine-protein kinase BTK (Homo sapiens); experiment: Inhibition of human recombinant full-length N-terminal His-tagged BTK expressed in baculovirus infected Sf9 insect cells after 60 mins by ADP-Glo kinase assay
Sequence (Q06187 whole entry): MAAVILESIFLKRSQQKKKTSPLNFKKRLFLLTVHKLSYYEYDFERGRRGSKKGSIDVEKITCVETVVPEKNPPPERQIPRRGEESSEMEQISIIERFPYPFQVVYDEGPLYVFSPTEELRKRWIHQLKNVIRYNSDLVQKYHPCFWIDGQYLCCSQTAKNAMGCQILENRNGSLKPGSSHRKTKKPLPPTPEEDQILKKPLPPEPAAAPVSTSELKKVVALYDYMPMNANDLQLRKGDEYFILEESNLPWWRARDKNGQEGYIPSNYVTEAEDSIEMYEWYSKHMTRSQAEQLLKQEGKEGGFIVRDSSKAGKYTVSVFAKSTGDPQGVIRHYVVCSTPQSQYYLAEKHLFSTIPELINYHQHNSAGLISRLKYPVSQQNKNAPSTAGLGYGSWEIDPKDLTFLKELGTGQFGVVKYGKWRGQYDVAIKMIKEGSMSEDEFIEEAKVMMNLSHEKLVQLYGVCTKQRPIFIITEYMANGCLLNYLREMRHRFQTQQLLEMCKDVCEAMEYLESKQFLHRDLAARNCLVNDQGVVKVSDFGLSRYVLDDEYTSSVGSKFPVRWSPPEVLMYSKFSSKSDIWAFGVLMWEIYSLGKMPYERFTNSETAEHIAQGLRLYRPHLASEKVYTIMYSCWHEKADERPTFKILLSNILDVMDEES
pIC50: −log10 of the molar value.
readout_type: pIC50

C=CC(=O)Nc1cccc(Nc2nc(Nc3ccc(NS(=O)(=O)c4ccc(F)cc4)c(C)c3)ncc2Cl)c1    7.10
C=CC(=O)Nc1cccc(Nc2nc(Nc3ccc(NS(=O)(=O)c4ccc(F)cc4)c(OC)c3)ncc2Cl)c1    8.93

[I] C=CC(=O)Nc1cccc(Oc2nc(Nc3ccc(NS(=O)(=O)c4ccc(C)cc4)c(C)c3)ncc2Cl)c1
[II] C=CC(=O)Nc1cccc(Oc2nc(Nc3ccc(NS(=O)(=O)c4ccc(OC)cc4)cc3)ncc2Cl)c1
[III] C=CC(=O)Nc1cccc(Nc2nc(Nc3ccc(NS(=O)(=O)c4ccc(F)cc4)c(C)c3)ncc2[N+](=O)[O-])c1
[IV] C=CC(=O)Nc1cccc(Nc2nc(Nc3ccc(NS(=O)(=O)c4ccc(OC)cc4)cc3)ncc2Cl)c1
Query :: I would appreciate it if you could sort these 4 compounds by pIC50, starting from the smallest number. Order the labels as requested and give them as your answer.
Result :: III, IV, I, II
(III: 7.07, IV: 8.04, I: 8.98, II: 9.38)

====

tested on: Raji; test: Antiproliferative activity against human Raji cells over expressing BTK after 48 hrs by CCK-8 assay; format: functional, cell-based
readout_type: IC50 (µM)

C=CC(=O)Nc1cccc(Nc2nc(Nc3ccc(NS(=O)(=O)c4ccc(C)cc4)cc3)ncc2Cl)c1    17.4
C=CC(=O)Nc1cccc(Nc2nc(Nc3ccc(NS(=O)(=O)c4ccc(F)cc4)c(OC)c3)ncc2Cl)c1    13.2
C=CC(=O)Nc1cccc(Nc2nc(Nc3ccc(NS(=O)(=O)c4ccc(OC)cc4)cc3)ncc2Cl)c1    15.5
C=CC(=O)Nc1cccc(Nc2nc(Nc3ccc(NS(=O)(=O)c4ccc(F)cc4)c(C)c3)ncc2[N+](=O)[O-])c1    22.4
C=CC(=O)Nc1cccc(Nc2nc(Nc3ccc(NS(=O)(=O)c4ccc(OC)cc4)cc3)ncc2F)c1    36.9
C=CC(=O)Nc1cccc(Nc2nc(Nc3ccc(NS(=O)(=O)c4ccc(F)cc4)c(C)c3)ncc2Cl)c1    10.5

[I] C=CC(=O)Nc1cccc(Nc2nc(Nc3ccc(NS(=O)(=O)c4ccc(C)cc4)c(C)c3)ncc2[N+](=O)[O-])c1
[II] C=CC(=O)Nc1cccc(Nc2nc(Nc3ccc(NS(=O)(=O)c4ccc(C)cc4)c(OC)c3)ncc2[N+](=O)[O-])c1
Query :: Looking at I and II , which one comes out lower in IC50 terms? Write down the label attached to your selection.
Result :: I
(I: 14.2 µM, II: 34.1 µM)

====

system: Raji; assay: Antiproliferative activity against human Raji cells over expressing BTK after 48 hrs by CCK-8 assay; format: functional, cell-based
readout_type: IC50 (µM)

C=CC(=O)Nc1cccc(Nc2nc(Nc3ccc(NS(=O)(=O)c4ccc(OC)cc4)cc3)ncc2[N+](=O)[O-])c1    18.7

[a] C=CC(=O)Nc1cccc(Oc2nc(Nc3ccc(NS(=O)(=O)c4ccc(C)cc4)c(C)c3)ncc2Cl)c1
[b] C=CC(=O)Nc1cccc(Oc2nc(Nc3ccc(NS(=O)(=O)c4ccc(OC)cc4)cc3)ncc2Cl)c1
Query :: Sort a and b by IC50 descending and give the first. Write down the label attached to your selection.
Result :: b
(b: 40.9 µM, a: 18.7 µM)
